As shown below, each of these molecules has a reported remaining activity at 1 µM value.
- subject_of_test: Tau P301L (Homo sapiens, UniProt P10636, P618L)
- Construct: expressed in transfected cells
- Sequence (P10636 1-441 isoform P10636-8 P301L): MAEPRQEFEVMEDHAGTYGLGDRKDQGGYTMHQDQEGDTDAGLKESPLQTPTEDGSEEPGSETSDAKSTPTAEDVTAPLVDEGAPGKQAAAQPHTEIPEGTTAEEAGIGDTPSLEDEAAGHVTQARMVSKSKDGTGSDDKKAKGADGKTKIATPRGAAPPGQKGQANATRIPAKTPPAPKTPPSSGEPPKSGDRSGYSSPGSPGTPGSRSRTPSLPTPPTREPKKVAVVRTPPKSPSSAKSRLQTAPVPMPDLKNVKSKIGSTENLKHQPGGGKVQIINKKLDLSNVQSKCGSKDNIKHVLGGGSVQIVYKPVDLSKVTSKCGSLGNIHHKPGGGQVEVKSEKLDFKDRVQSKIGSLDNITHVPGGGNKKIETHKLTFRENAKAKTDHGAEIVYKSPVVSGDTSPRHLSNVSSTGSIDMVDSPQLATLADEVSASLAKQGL
- test_protocol: In vitro tau degradation assay in CHOK1 Tau P301L cells (sarkosyl insoluble tau, WES)
- Assay type: cell-based
- experimental_setup: CHO-K1; remaining tau protein in sarkosyl insoluble pellet; CHOK1 Tau P301L cells treated 48 hours with test compound at 1 μM, doxycycline removed for the last 24 hours; relative to DMSO doxycycline control; read-out: Tau Protein Degradation effect at 1 μM

Here's what some known entries look like.
>  <molecule>
O=C1CCC(N2C(=O)c3cccc(N4CCN(CCC5CCN(c6ncc(-c7ccc8c9cnccc9n(C(F)F)c8c7)cc6F)CC5)CC4)c3C2=O)C(=O)N1 (stereo not shown) [Compound 594]

>  <remaining activity at 1 µM>
< 50%

$$$$
>  <molecule>
Cn1c2ccncc2c2ccc(-c3ccc(N4CCC(CN5CCN(c6ccc7c(c6)C(=O)N(C6CCC(=O)NC6=O)C7=O)CC5)CC4)nc3)cc21 (stereo not shown) [Compound 390]

>  <remaining activity at 1 µM>
> 50%

$$$$
>  <molecule>
Cn1c2ccncc2c2ccc(-c3ccc(O[C@H]4C[C@H](CN5CCC(CCCN6CC(Oc7ccc8c(c7)C(=O)N(C7CCC(=O)NC7=O)C8=O)C6)CC5)C4)nc3)cc21 (stereo partly shown) [Compound 394]

>  <remaining activity at 1 µM>
> 50%

$$$$
>  <molecule>
CC(C)N(CCCCOc1ccc2c(c1)C(=O)N(C1CCC(=O)NC1=O)C2=O)[C@H]1CC[C@H](O[C@H]2C[C@H](Oc3ccc(-c4ccc5c6cnccc6n(C)c5c4)cn3)C2)CC1 (stereo partly shown) [Compound 436]

>  <remaining activity at 1 µM>
< 50%

$$$$
>  <molecule>
CC(C)(CC1CCN(c2ncc(-c3ccc4c5cnccc5n(C(F)F)c4c3)cc2F)CC1)N1CCN(c2ccc3c(c2)C(=O)N(C2CCC(=O)NC2=O)C3=O)CC1 (stereo not shown) [Compound 677]

>  <remaining activity at 1 µM>
< 50%

$$$$

Request: Using the record for Cn1c2ccncc2c2ccc(-c3ccc(OC4CC5(C4)CN(C(=O)CN4CCC(OC6CN(c7ccc8c(c7)C(=O)N(C7CCC(=O)NC7=O)C8=O)C6)CC4)C5)nc3)cc21 (stereo not shown) [Compound 462] , report its remaining activity at 1 µM.
Response: > 50%

Request: Using the record for O=C1CCC(N2C(=O)c3ccc(OCCN4CCC(OC5CN(c6ncc(-c7ccn8c(n7)nc7ccccc78)cc6C(F)(F)F)C5)CC4)cc3C2=O)C(=O)N1 (stereo not shown) [Compound 483] , report its remaining activity at 1 µM.
Response: > 50%

Request: Using the record for Cc1ncsc1-c1ccc([C@H](C)NC(=O)[C@@H]2C[C@@H](O)CN2C(=O)[C@@H](c2cc(N3CCN(CCO[C@H]4C[C@H](Oc5ccc(-c6ccc7c8cnccc8n(C)c7c6)cn5)C4)CC3)no2)C(C)C)cc1 [Compound 391] , report its remaining activity at 1 µM.
Response: < 50%

Request: Using the record for Nc1cccc2cnc(-n3ccc4cc(OCCOCCOCCOCCOc5ccc6c(c5)C(=O)N(C5CCC(=O)NC5=O)C6=O)ncc43)cc12 (stereo not shown) [Compound 353] , report its remaining activity at 1 µM.
Response: < 50%

Request: Using the record for Cc1ncsc1-c1ccc([C@H](C)NC(=O)[C@@H]2C[C@@H](O)CN2C(=O)[C@@H](c2cc(OCCN3CCC(O[C@H]4C[C@H](Oc5ccc(-c6ccc7c8cnccc8n(C)c7c6)cn5)C4)CC3)no2)C(C)C)cc1 [Compound 398] , report its remaining activity at 1 µM.
Response: < 50%

Origin of values: patent US11912699B2
